biological target: GTPase KRas (Homo sapiens, UniProt P01116, G12C); assay: Inhibition of C-terminal Avi and 6His-tagged human KRAS 2B G12C mutant (1 to 166 residues) expressed in Escherichia coli BL21 (DE3) assessed as inhibition of SOS mediated nucleotide exchange preincubated for 4 hrs followed by SOS1 addition by HTRF assay
property.label: IC50 (nM)
Numeric answer only, unit nM assumed.

C=CC(=O)N1CCN2c3ncnc4cc(-c5c(C)ccc6[nH]ncc56)c(Cl)c(c34)OCC[C@H]2C1 (single isomer, unassigned; atropisomer 2)
9
C=CC(=O)N1C[C@@H]2CCOc3c(Cl)c(-c4c(O)cccc4F)c(F)c4ncnc(c34)N2C[C@@H]1C
138
C=CC(=O)N1CCN2c3ncnc4cc(-c5c(C)ccc6[nH]ncc56)c(Cl)c(c34)OC[C@H]2C1 (single isomer, unassigned; atropisomer 2)
17800

Would you kindly look at the next entry?
Could you share which IC50 value was measured for C=CC(=O)N1CCN2c3ncnc4cc(-c5c(C)ccc6[nH]ncc56)c(Cl)c(c34)OCC[C@@H]2C1 (single isomer, unassigned; atropisomer 1) ? 15500
